molecular target: PI3Kδ (Homo sapiens); assay: PI3Ks isoform in cell EC50 assay (AKT phosphorylation, Western Blotting); settings: Raji cells, 1μg/ml anti-IgM, Akt phosphorylation at T308; read-out: cellular EC50 PI3K Delta
Sequence (O00329 whole entry, canonical isoform): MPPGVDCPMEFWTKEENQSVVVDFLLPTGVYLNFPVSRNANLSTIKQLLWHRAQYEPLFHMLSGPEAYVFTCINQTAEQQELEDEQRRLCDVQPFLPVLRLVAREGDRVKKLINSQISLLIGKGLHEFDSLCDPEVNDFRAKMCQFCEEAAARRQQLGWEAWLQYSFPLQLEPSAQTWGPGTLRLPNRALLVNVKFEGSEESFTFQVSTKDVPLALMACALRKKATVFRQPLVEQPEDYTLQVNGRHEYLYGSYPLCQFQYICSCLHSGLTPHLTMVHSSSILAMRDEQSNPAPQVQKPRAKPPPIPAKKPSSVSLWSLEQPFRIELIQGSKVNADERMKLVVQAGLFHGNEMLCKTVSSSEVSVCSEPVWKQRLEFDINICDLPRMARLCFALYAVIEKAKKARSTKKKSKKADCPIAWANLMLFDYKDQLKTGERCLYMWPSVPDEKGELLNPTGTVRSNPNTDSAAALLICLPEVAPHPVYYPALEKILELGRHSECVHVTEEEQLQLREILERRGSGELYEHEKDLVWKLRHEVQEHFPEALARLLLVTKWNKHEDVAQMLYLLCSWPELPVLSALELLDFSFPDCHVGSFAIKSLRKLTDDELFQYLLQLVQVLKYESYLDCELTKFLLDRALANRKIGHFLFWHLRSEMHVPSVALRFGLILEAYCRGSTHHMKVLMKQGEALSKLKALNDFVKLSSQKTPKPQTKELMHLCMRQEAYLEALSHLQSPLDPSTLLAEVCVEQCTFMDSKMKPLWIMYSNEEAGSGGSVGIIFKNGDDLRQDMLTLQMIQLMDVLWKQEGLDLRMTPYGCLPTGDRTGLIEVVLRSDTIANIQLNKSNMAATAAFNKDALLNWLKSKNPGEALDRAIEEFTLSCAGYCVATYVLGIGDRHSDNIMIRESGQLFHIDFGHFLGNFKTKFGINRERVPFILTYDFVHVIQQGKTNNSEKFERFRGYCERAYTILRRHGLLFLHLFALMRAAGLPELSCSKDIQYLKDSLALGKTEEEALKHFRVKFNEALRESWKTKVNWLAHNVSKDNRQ
Sequence (P27986 whole entry partner, canonical isoform): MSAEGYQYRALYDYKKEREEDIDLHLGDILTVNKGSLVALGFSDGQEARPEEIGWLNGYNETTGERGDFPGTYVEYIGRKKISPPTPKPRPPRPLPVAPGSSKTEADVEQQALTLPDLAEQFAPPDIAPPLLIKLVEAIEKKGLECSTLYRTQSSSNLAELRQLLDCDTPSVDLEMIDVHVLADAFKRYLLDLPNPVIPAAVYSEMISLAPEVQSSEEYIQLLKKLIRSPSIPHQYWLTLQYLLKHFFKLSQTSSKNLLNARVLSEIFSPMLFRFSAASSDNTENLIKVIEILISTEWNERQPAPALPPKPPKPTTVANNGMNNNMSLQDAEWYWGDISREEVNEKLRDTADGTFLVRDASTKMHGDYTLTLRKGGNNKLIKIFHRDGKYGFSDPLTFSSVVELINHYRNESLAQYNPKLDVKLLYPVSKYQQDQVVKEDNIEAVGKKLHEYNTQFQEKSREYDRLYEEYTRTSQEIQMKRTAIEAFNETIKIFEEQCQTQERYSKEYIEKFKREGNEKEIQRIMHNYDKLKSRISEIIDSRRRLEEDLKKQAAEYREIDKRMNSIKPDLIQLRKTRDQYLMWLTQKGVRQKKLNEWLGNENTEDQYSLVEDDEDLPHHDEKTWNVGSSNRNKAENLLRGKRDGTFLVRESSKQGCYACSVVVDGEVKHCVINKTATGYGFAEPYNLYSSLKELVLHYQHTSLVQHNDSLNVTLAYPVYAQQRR
assay_endpoint: EC50 (nM)
I only need the number, in nM, no unit after it.

# return EC50 of Cc1nc(NC(=O)[C@@H](N)C(C)C)sc1-c1cnc(Cl)c(NS(=O)(=O)c2ccccc2)c1 (system: PI3Kδ (Homo sapiens)) 13

* * *

target: PI3Kα (Mus musculus); construct: endogenous in cells; experiment: PI3Ks isoform in cell EC50 assay (AKT phosphorylation, Western Blotting); settings: NIH-3T3, 20ng/ml PDGF-BB, read-out: cellular EC50 PI3K Alpha
Sequence (P42337 whole entry, canonical isoform): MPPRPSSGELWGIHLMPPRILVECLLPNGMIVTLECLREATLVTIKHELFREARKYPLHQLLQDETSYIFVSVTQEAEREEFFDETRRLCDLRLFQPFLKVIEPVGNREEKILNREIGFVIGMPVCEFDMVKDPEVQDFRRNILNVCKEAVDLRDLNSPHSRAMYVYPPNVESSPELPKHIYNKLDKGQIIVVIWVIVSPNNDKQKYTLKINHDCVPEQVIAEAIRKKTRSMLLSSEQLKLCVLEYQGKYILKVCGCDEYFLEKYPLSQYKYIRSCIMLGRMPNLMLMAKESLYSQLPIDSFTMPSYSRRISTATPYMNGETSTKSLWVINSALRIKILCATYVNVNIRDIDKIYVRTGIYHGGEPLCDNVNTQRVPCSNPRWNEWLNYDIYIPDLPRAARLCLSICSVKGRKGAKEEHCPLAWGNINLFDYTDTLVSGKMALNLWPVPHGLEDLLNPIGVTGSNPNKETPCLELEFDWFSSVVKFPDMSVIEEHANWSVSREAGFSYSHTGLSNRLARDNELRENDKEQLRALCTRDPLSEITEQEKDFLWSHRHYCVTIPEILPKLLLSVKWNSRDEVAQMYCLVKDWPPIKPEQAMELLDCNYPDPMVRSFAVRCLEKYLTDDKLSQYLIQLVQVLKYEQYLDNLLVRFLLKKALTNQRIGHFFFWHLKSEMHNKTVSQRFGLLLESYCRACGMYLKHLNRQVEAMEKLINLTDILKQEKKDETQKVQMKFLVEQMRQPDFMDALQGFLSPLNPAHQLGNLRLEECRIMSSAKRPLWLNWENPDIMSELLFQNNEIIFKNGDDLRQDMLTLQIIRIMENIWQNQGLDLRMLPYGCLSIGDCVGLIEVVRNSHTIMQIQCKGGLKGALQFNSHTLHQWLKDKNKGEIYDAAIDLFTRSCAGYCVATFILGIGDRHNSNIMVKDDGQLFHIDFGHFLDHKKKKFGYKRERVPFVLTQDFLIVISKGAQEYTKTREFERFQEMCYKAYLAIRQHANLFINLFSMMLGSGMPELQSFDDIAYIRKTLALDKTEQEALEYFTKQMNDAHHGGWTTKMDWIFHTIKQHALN
Sequence (P26450 whole entry partner, canonical isoform): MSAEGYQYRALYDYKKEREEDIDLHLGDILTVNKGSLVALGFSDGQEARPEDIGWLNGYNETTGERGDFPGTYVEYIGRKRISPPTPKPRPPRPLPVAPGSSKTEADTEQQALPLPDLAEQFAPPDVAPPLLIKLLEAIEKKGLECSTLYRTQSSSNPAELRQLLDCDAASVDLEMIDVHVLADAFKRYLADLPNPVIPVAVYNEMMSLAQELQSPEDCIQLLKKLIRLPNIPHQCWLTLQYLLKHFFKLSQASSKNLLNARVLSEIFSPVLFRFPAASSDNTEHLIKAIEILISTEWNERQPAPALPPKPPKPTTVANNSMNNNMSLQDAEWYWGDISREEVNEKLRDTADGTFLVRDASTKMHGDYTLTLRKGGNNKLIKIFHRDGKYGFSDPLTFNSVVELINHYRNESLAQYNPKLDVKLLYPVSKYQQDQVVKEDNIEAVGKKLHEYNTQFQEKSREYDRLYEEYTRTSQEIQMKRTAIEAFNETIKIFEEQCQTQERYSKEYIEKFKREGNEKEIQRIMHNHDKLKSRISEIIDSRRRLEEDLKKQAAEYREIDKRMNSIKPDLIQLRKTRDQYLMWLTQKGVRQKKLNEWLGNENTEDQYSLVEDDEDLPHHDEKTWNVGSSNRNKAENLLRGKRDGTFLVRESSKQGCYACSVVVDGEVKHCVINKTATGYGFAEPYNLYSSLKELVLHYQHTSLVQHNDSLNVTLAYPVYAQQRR
For each entry below, report its EC50 value.

Quote EC50 reported for CS(=O)(=O)N1CCN(Cc2cc3nc(-c4cccc5[nH]ncc45)nc(N4CCOCC4)c3s2)CC1 [GDC-0941] please. 624 nM

Quote EC50 reported for Cc1nc(NC(=O)[C@@H](N)C(C)C)sc1-c1cnc(Cl)c(NS(=O)(=O)c2ccccc2)c1 [PI3KD-IN-015] please. > 3000 nM

Quote EC50 reported for CC[C@H](Nc1ncnc2[nH]cnc12)c1nc2cccc(F)c2c(=O)n1-c1ccccc1 [CAL-101, Idelalisib] please. > 3000 nM

Hello, the source for this data is paper PMC5078040, in case you need it.
